This collection of values is drawn from patent US9670209B2.

EXPERIMENTAL_SYSTEM: UniProtKB P20309
Sequence (P20309 whole entry): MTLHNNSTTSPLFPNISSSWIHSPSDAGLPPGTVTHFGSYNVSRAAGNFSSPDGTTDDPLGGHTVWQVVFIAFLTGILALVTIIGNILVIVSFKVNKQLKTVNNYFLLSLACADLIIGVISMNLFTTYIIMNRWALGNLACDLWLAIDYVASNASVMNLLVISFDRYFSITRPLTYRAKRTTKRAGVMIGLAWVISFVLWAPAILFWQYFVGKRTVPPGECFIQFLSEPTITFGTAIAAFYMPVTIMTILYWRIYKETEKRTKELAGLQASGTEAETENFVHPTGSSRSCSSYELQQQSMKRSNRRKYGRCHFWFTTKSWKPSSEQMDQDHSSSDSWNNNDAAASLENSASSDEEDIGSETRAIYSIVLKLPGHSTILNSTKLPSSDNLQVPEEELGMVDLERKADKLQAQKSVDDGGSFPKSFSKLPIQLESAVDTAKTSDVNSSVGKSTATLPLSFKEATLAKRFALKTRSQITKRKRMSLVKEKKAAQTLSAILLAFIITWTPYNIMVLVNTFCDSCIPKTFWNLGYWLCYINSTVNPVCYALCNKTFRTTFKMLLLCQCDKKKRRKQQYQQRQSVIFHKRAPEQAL
ASSAY_SUMMARY: R-SAT (Receptor Selection and Amplification) assay, M3
Type: cell-based
CONDITION_PARAMETERS: read-out: M3 EFF % AVG
Consider the following compounds; for each one, report its Emax.
# value in %; strip the unit string

Q: What does the data say about its Emax? Entry: CCOCC[C@H]1C[C@H]2CC[C@@H](C1)N2C[C@@H](C)Cn1ncc2ccc(C)cc21 [Compound 324]
Result: 17

Q: Give its Emax value. Item: CCCO[C@H]1C[C@H]2CC[C@@H](C1)N2C[C@@H](C)Cn1ncc2ccccc21 [Compound 319s]
Result: 3

Q: Name the reported Emax value associated with the compound Cc1nn(C[C@H](C)CN2[C@@H]3CC[C@H]2C[C@@H](OCC2CC2)C3)c2ccccc12 [Compound 316]
Result: 5

Q: Name the reported Emax value associated with the compound COC/C=C1\C[C@H]2CC[C@@H](C1)N2C[C@@H](C)Cn1ncc2ccccc21 [Compound 320s]
Result: 8

Q: Endpoint output: Emax of C#CCO[C@H]1C[C@H]2CC[C@@H](C1)N2C[C@@H](C)Cn1ncc2ccc(OC)cc21 [Compound 322s] . Value?
Result: 5

Q: Could you share which Emax value was measured for C#CCO[C@H]1C[C@H]2CC[C@@H](C1)N2C[C@@H](C)Cn1ncc2ccccc21 [Compound 318s] ?
Result: 8

Q: Look at this compound and give its reported Emax. COc1ccc2cnn(C[C@H](C)CN3[C@@H]4CC[C@H]3C[C@@H](OCC3CC3)C4)c2c1 [Compound 311]
Result: 2

Q: Find the recorded Emax belonging to C[C@H](CN1[C@@H]2CC[C@H]1C[C@@H](OCC1CC1)C2)Cn1ncc2ccc(F)cc21 [Compound 307] and report it.
Result: 19

Q: Can you share its Emax? I mean this compound: C=CCO[C@H]1C[C@H]2CC[C@@H](C1)N2C[C@@H](C)Cn1ncc2ccccc21 [Compound 305]
Result: 4

Q: Fill in the blank: the reported Emax of Cc1ccc2cnn(C[C@H](C)CN3[C@@H]4CC[C@H]3C[C@@H](OCC3CC3)C4)c2c1 [Compound 304] is ____.
Result: 9

Q: Can you share its Emax? I mean this compound: Cc1ccc2c(cnn2C[C@H](C)CN2[C@@H]3CC[C@H]2C[C@@H](OCC2CC2)C3)c1 [Compound 321]
Result: 3

Q: For the compound Cc1cccc2cnn(C[C@H](C)CN3[C@@H]4CC[C@H]3C[C@@H](OCC3CC3)C4)c12 [Compound 317] , what Emax is on record?
Result: 2

Q: Please give the measured Emax for this compound: COCC[C@H]1C[C@H]2CC[C@@H](C1)N2C[C@@H](C)Cn1ncc2ccc(F)cc21 [Compound 309]
Result: 18

Q: I am curious: what Emax value has been reported for C=CCO[C@H]1C[C@H]2CC[C@@H](C1)N2C[C@@H](C)Cn1ncc2ccc(F)cc21 [Compound 308] ?
Result: 18

Q: Item C[C@H](CN1[C@@H]2CC[C@H]1C[C@@H](OCC1CC1)C2)Cn1ncc2ccccc21 [Compound 302S] has what recorded Emax?
Result: 12

Q: May I ask what Emax has been recorded for COCC[C@H]1C[C@H]2CC[C@@H](C1)N2C[C@@H](C)Cn1ncc2ccc(OC)cc21 [Compound 313] ?
Result: 7

###

EXPERIMENTAL_SYSTEM: M1 muscarinic receptor (Homo sapiens (Human), UniProt P11229)
Sequence (P11229 whole entry): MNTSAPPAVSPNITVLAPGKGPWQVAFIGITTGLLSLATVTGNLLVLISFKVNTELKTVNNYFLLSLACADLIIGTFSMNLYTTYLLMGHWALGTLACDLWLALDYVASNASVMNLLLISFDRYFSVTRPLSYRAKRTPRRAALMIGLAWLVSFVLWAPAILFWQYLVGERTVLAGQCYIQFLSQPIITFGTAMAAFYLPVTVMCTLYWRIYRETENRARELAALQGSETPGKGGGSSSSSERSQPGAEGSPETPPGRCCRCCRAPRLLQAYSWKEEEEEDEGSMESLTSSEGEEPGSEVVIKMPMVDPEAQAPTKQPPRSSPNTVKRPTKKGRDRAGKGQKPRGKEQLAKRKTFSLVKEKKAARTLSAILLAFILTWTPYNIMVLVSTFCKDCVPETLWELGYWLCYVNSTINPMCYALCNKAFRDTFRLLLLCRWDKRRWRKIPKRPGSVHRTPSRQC
ASSAY_SUMMARY: M1 GTPγS binding assay;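 note: efficacy relative to carbachol as 100%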
Assay type: biochemical
CONDITION_PARAMETERS: read-out: M1 GTPγS EFF % AVG
Assign Emax to each entry below.
Give the value in % but do not write % after it.

Q: Give M1 muscarinic receptor (Homo sapiens (Human), UniProt P11229) Emax for Cc1ccc2cnn(C[C@H](C)CN3[C@@H]4CC[C@H]3C[C@@H](OCC3CC3)C4)c2c1 [Compound 304]
Result: 67

Q: Request - read-out Emax | tested on M1 muscarinic receptor (Homo sapiens (Human), UniProt P11229) | molecule CCOCC[C@H]1C[C@H]2CC[C@@H](C1)N2C[C@@H](C)Cn1ncc2ccccc21 [Compound 323]
Result: 32

Q: Query for M1 muscarinic receptor (Homo sapiens (Human), UniProt P11229): what Emax does the record show for C[C@H](CN1[C@@H]2CC[C@H]1C[C@@H](OCC1CC1)C2)Cn1ncc2ccccc21 [Compound 302S] ?
Result: 98

Q: Query for M1 muscarinic receptor (Homo sapiens (Human), UniProt P11229): what Emax does the record show for COc1ccc2cnn(C[C@H](C)CN3[C@@H]4CC[C@H]3C[C@@H](OCC3CC3)C4)c2c1 [Compound 311] ?
Result: 55

Q: Value wanted: Emax (M1 muscarinic receptor (Homo sapiens (Human), UniProt P11229)) of entry COCC[C@H]1C[C@H]2CC[C@@H](C1)N2C[C@@H](C)Cn1ncc2ccccc21 [Compound 303S]
Result: 67

Q: Value wanted: Emax (M1 muscarinic receptor (Homo sapiens (Human), UniProt P11229)) of entry C=CCO[C@H]1C[C@H]2CC[C@@H](C1)N2C[C@@H](C)Cn1ncc2ccccc21 [Compound 305]
Result: 70

Q: GET /values?readout=Emax&system=M1 muscarinic receptor (Homo sapiens (Human), UniProt P11229)&item= COCC[C@H]1C[C@H]2CC[C@@H](C1)N2C[C@@H](C)Cn1ncc2ccc(OC)cc21 [Compound 313]
Result: 49

Q: Please state recorded Emax (tested on M1 muscarinic receptor (Homo sapiens (Human), UniProt P11229)) of C[C@H](CN1[C@@H]2CC[C@H]1C[C@@H](OCC1CC1)C2)Cn1ncc2ccc(F)cc21 [Compound 307]
Result: 63

Q: So what Emax did C[C@H](CN1[C@@H]2CC[C@H]1C[C@@H](OCC1CC1)C2)Cn1ncc2ccc(CO)cc21 [Compound 310s] get with M1 muscarinic receptor (Homo sapiens (Human), UniProt P11229)?
Result: 62

###

EXPERIMENTAL_SYSTEM: UniProtKB P11229
ASSAY_SUMMARY: R-SAT (Receptor Selection and Amplification) assay, M1
Assay type: cell-based
CONDITION_PARAMETERS: NIH-3T3 cells
Kindly state M1 PEC50 AVG for each of the entries shown.

Q: Consider the molecule shown here: `C[C@H](CN1[C@@H]2CC[C@H]1C[C@@H](OCC1CC1)C2)Cn1ncc2ccc(F)cc21` What is its recorded M1 PEC50 AVG?
Result: 9.5

Q: Give its M1 PEC50 AVG value. Item: `Cc1cccc2cnn(C[C@H](C)CN3[C@@H]4CC[C@H]3C[C@@H](OCC3CC3)C4)c12`
Result: 7.6

Q: Please look up its M1 PEC50 AVG: `C=CCO[C@H]1C[C@H]2CC[C@@H](C1)N2C[C@@H](C)Cn1ncc2ccc(F)cc21`
Result: 8.9

Q: What does the record list as M1 PEC50 AVG for `C=CCO[C@H]1C[C@H]2CC[C@@H](C1)N2C[C@@H](C)Cn1ncc2ccccc21` ?
Result: 8.1

Q: Using the record for `COCC[C@H]1C[C@H]2CC[C@@H](C1)N2C[C@@H](C)Cn1ncc2ccc(OC)cc21` , report its M1 PEC50 AVG.
Result: 8.2

Q: Report M1 PEC50 AVG for `CCOCC[C@H]1C[C@H]2CC[C@@H](C1)N2C[C@@H](C)Cn1ncc2ccc(C)cc21` please.
Result: 9.1

Q: Item under review: `COCC[C@H]1C[C@H]2CC[C@@H](C1)N2C[C@@H](C)Cn1ncc2ccc(F)cc21` . Reported M1 PEC50 AVG?
Result: 9.4

Q: Given the entry C[C@H](CN1[C@@H]2CC[C@H]1C[C@@H](OC1CCCC1)C2)Cn1ncc2ccccc21 [Compound 314s] , report its measured M1 PEC50 AVG.
Result: 8.4

Q: Which M1 PEC50 AVG is reported for this molecule? `Cc1ccc2cnn(C[C@H](C)CN3[C@@H]4CC[C@H]3C[C@@H](OCC3CC3)C4)c2c1`
Result: 8.9

Q: Request the reported M1 PEC50 AVG associated with COCC[C@H]1C[C@H]2CC[C@@H](C1)N2C[C@@H](C)Cn1ncc2ccccc21 [Compound 303S]
Result: 8.4

Q: Param item = C[C@H](CN1[C@@H]2CC[C@H]1C[C@@H](OCC1CC1)C2)Cn1ncc2ccccc21 [Compound 302S] ; retrieve measured M1 PEC50 AVG.
Result: 8.9

Q: Given the entry C#CCO[C@H]1C[C@H]2CC[C@@H](C1)N2C[C@@H](C)Cn1ncc2ccc(OC)cc21 [Compound 322s] , report its measured M1 PEC50 AVG.
Result: 8.0

Q: Fill blank: measured M1 PEC50 AVG of the molecule `C[C@H](CN1[C@@H]2CC[C@H]1C[C@@H](OCC1CCC1)C2)Cn1ncc2ccccc21` is ____.
Result: 8.1

Q: Reported M1 PEC50 AVG, molecule CC(C)(C)OC(=O)N1C2CC[C@H]1C[C@@H](O)C2 [Comparative compound 2, reference compound] : ____
Result: 9.0

Q: What value of M1 PEC50 AVG has been recorded for this entry: `CCOCC[C@H]1C[C@H]2CC[C@@H](C1)N2C[C@@H](C)Cn1ncc2ccccc21`
Result: 9.1

Q: Query (molecule): CCCO[C@H]1C[C@H]2CC[C@@H](C1)N2C[C@@H](C)Cn1ncc2ccccc21 [Compound 319s] ; field requested: M1 PEC50 AVG
Result: 8.1
